- Test system: KHOS-NP
- Run description: relative viability vs DMSO control (72 h) (fraction); higher = more viable cells
- Condition context: 0.3704 µM
Quantity name: relative viability

INSERT INTO results (molecule, data_value) VALUES
  ('COc1cc2ncnc(Nc3ccc(F)c(Cl)c3)c2cc1OCCCN1CCOCC1', 1.06),
  ('CS(=O)(=O)CCNCc1ccc(-c2ccc3ncnc(Nc4ccc(OCc5cccc(F)c5)c(Cl)c4)c3c2)o1', 1.1),
  ('CCS(=O)(=O)N1CC(CC#N)(n2cc(-c3ncnc4[nH]ccc34)cn2)C1', 1.02),
  ('CNC(=O)c1cccc2cc(Oc3ccnc4cc(OCC5(N)CC5)c(OC)cc34)ccc12', 1.11),
  ('O=S(=O)(c1cccc2c(O)nccc12)N1CCCNCC1 [Hydroxyfasudil]', 1.07),
  ('Cc1[nH]c(/C=C2\C(=O)Nc3ccccc32)c(C)c1CCC(=O)O [Orantinib]', 1.1),
  ('Cc1c2oc3c(C)ccc(C(=O)N[C@@H]4C(=O)N[C@H](C(C)C)C(=O)N5CCC[C@H]5C(=O)N(C)CC(=O)N(C)[C@@H](C(C)C)C(=O)O[C@@H]4C)c3nc-2c(C(=O)N[C@@H]2C(=O)N[C@H](C(C)C)C(=O)N3CCC[C@H]3C(=O)N(C)CC(=O)N(C)[C@@H](C(C)C)C(=O)O[C@@H]2C)c(N)c1=O', 0.0744),
  ('Cc1cc2c(F)c(Oc3ncnn4cc(OC[C@@H](C)OC(=O)[C@H](C)N)c(C)c34)ccc2[nH]1 [Brivanib_alaninate]', 1.03),
  ('CCOc1cc2ncc(C#N)c(Nc3ccc(OCc4ccccn4)c(Cl)c3)c2cc1NC(=O)/C=C/CN(C)C', 1.02),
  ('C[C@@H]1CN(C(=O)c2ccc(NC(=O)c3cc(O[C@H](C)c4c(Cl)ccc(F)c4Cl)c(N)nn3)cc2)C[C@H](C)N1', 1.03),
  ('C#Cc1cccc(Nc2ncnc3cc4c(cc23)OCCOCCOCCO4)c1', 1.09);
